molecular target: Sodium-dependent dopamine transporter (Homo sapiens, UniProt Q01959); assay: Inhibition of dopamine uptake at human DAT in human HEK293 cells
Sequence (Q01959 whole entry): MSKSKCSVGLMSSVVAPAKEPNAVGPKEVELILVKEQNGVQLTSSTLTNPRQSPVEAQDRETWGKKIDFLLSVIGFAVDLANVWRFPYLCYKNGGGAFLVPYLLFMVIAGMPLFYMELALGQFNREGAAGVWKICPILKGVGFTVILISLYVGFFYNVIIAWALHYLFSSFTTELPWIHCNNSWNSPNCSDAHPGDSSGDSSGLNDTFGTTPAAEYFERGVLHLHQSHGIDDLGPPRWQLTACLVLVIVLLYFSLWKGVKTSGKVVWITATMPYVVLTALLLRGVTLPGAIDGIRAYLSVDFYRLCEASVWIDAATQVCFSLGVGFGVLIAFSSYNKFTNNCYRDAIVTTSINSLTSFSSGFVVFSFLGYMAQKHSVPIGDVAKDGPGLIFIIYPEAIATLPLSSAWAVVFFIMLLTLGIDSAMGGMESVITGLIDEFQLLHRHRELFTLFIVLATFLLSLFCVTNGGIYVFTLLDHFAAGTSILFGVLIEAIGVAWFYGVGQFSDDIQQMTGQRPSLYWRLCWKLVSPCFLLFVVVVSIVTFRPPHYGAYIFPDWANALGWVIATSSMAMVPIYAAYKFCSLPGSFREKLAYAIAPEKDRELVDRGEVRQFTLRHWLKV
pIC50: −log10 of the molar value.
The entries below come with measured pIC50 values attached.
measurementName: pIC50

Cc1ccccc1O[C@H]1CC[C@@H](N)c2ccccc21 (relative stereo) | 6.00
CN[C@H]1Cc2ccccc2[C@H](Oc2ccccc2C)C1 | 5.10
CN[C@@H]1CC[C@H](Oc2ccccc2C)c2ccccc21 (relative stereo) | 6.00
N[C@@H]1C[C@H](Oc2ccccc2)c2ccccc21 (relative stereo) | 5.70

---

molecular target: Sodium-dependent dopamine transporter (Homo sapiens, UniProt Q01959); assay: Inhibition of dopamine uptake at human DAT in human HEK293 cells; format: cell-based
Decision: IC50 beneath 4 µM gives true; IC50 meeting or exceeding 4 µM gives false.

Cc1ccccc1O[C@H]1C[C@H](N(C)C)c2ccccc21 | true
COc1ccc(O[C@H]2C[C@@H](N(C)C)c3ccccc32)cc1 | false
CN(C)[C@@H]1C[C@H](Oc2ccccc2)c2ccccc21 (relative stereo) | false
Cc1ccccc1O[C@@H]1CC[C@@H](N)c2ccccc21 (relative stereo) | true
CN(C)[C@@H]1C[C@H](Oc2ccc(Cl)cc2)c2ccccc21 (relative stereo) | false
CN[C@@H]1Cc2ccccc2[C@@H](Oc2ccccc2C)C1 | false
Cc1ccccc1O[C@H]1C[C@H](N)c2ccccc21 (relative stereo) | true
Cc1ccccc1O[C@H]1C[C@@H](N(C)C(C)C)c2ccccc21 (relative stereo) | false
CN[C@@H]1C[C@H](Oc2ccccc2)c2ccccc21 (relative stereo) | false
CCN[C@@H]1C[C@H](Oc2ccccc2C)c2ccccc21 (relative stereo) | true
